As shown below, each of these compounds has a reported EC50 value.
assay: Inhibition of PDK (unknown origin) using RYHGHSMSDP as substrate after 30 mins by Kinase-Glo luminescent assay; parameters: species or system Homo sapiens

CC(C)(O)c1ccc(Nc2ccc(C(=O)C(Cl)Cl)cc2[N+](=O)[O-])cc1	1490 nM
CC(C)(C)c1ccc(Nc2ccc(C(=O)C(Cl)Cl)cc2[N+](=O)[O-])cc1	550 nM
O=C(c1ccccc1)C(Cl)Cl	> 80000 nM

Task: What measured EC50 goes with `CC(C)c1ccc(Nc2ccc(C(=O)C(Cl)Cl)cc2[N+](=O)[O-])cc1` ?
Output: 340 nM

Task: Entry `CC(C)Oc1ccc(C(=O)C(Cl)Cl)cc1[N+](=O)[O-]` : reported EC50 = ?
Output: 330 nM

Task: Quick check: EC50 of `CN(C)C(=O)c1ccc(S(=O)(=O)c2ccc(NC(=O)[C@@](C)(O)C(F)(F)F)c(Cl)c2)cc1` ?
Output: 53 nM

Task: May I ask what EC50 has been recorded for `CC(C)(CO)c1ccc(Nc2ccc(C(=O)C(Cl)Cl)cc2[N+](=O)[O-])cc1` ?
Output: 90 nM
